- target: Induced myeloid leukemia cell differentiation protein Mcl-1 (Homo sapiens)
- Sequence (Q07820 whole entry): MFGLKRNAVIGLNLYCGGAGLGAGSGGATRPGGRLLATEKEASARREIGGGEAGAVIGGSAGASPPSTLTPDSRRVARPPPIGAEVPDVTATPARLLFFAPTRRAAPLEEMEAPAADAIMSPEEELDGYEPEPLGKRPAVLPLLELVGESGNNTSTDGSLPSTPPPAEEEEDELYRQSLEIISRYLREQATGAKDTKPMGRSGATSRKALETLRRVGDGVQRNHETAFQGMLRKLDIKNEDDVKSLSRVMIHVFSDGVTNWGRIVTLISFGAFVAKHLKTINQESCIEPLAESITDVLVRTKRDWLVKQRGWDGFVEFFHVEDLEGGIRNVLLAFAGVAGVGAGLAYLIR
- assay-remarks: Inhibition of Mcl-1 (unknown origin) using 5-FAM-Bid-BH3 as substrate incubated for 30 mins followed by substrate addition and measured after 20 mins by fluorescence polarization assay
test-readout: Ki (µM)

(1) O=C(O)CSc1cc(NS(=O)(=O)c2ccc(Br)cc2)c2ccccc2c1O
(2) CN(C)c1cccc2c(S(=O)(=O)Nc3cc(SCC(=O)O)c(O)c4ccccc34)cccc12
Please indicate which item has the smaller measured Ki: 1 versus 2 Write down the label of the entry you select.
2
(2: 0.12 µM, 1: 0.21 µM)
